- Test system: Proto-oncogene tyrosine-protein kinase receptor Ret (Homo sapiens), P07949 [V804L]
- Sequence (P07949 whole entry V804L): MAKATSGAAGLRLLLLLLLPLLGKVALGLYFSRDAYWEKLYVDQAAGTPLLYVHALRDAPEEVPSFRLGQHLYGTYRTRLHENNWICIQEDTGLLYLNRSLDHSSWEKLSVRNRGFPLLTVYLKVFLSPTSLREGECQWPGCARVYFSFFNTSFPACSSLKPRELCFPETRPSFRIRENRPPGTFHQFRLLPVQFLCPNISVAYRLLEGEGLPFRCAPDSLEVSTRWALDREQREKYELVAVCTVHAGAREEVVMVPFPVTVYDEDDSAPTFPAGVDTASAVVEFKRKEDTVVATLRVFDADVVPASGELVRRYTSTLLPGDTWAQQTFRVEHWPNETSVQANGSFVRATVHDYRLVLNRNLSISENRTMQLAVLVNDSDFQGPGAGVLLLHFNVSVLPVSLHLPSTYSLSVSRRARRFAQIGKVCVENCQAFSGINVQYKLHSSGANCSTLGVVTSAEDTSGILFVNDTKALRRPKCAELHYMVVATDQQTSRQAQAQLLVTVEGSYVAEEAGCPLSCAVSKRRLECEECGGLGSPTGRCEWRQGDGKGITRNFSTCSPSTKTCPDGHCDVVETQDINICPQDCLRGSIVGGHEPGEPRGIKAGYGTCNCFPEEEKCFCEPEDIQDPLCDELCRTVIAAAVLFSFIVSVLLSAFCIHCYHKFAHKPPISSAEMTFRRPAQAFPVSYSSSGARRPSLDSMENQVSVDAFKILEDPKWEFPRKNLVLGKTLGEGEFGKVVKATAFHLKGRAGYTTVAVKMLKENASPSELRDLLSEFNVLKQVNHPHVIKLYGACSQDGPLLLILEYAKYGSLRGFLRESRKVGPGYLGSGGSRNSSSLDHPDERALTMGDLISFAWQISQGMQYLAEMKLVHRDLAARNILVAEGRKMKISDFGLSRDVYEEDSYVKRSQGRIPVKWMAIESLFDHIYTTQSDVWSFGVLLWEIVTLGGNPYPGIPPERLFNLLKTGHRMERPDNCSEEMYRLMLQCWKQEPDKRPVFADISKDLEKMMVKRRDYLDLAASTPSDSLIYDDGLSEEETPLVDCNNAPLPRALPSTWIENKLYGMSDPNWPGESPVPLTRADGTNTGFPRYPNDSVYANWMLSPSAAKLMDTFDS
- stated_conditions: at 0.1 µM
# thresholds on inhibition define classes: low end = under 3%, middle = from 3% up to 8%, high end = 8% and over

[[record]]
smiles_data = "O=C1Nc2ccccc2/C1=C1\\CCc2cc(O)ccc21"
group_label = "high end"

[[record]]
smiles_data = "CS(=O)(=O)Nc1ccc(-c2ccc3c(NC(=O)C4CC4)n[nH]c3c2)cc1"
group_label = "middle"

[[record]]
smiles_data = "NS(=O)(=O)c1ccc(N/N=C2\\C(=O)Nc3ccc(C(=O)NCc4ccncc4)cc32)cc1"
group_label = "high end"

[[record]]
smiles_data = "N#Cc1cccc(Nc2ncc(-c3ccccc3)o2)c1"
group_label = "low end"

[[record]]
smiles_data = "COc1cccc(Nc2nccc(-c3cnn4ncccc34)n2)c1"
group_label = "middle"

[[record]]
smiles_data = "CS(=O)(=O)CCNCc1ccoc1-c1ccc2ncnc(Nc3ccc(OCc4ccccc4)cc3)c2c1"
group_label = "high end"

[[record]]
smiles_data = "OCCCNc1nccc(-c2c(-c3ccc(F)cc3)nn3cc(C(F)(F)F)ccc23)n1"
group_label = "low end"

[[record]]
smiles_data = "Cc1cc(O)cc(C)c1/C=C/c1cncc(C(N)=O)c1"
group_label = "low end"

[[record]]
smiles_data = "CCOc1ccc2c(-c3ccnc(Nc4cc(OC)cc(C(F)(F)F)c4)n3)cnn2n1"
group_label = "low end"

[[record]]
smiles_data = "Cc1nnc(-c2cccc(-c3ccc(C(=O)NCC4CC4)cc3)c2)o1"
group_label = "middle"

[[record]]
smiles_data = "COc1c(C(N)=O)cc(-c2ccc(Cl)cc2)cc1-c1ccc(S(N)(=O)=O)cc1"
group_label = "middle"

[[record]]
smiles_data = "COc1ccc(-c2nn3ncccc3c2-c2ccnc(Nc3ccc(F)c(F)c3)n2)cc1"
group_label = "high end"

[[record]]
smiles_data = "CN(C)CCNC(=O)Nc1ccc(N(C)c2ccnc(Nc3ccc(CS(C)(=O)=O)cc3)n2)cc1"
group_label = "middle"


Attribution: ChEMBL document CHEMBL1961873
